Just for reference, ChEMBL document CHEMBL4706652 is where these values come from.

The following compounds are listed with their measured viability at 24 h, 20 µM values.
Assay: Cytotoxicity against LPS-induced […] BV-2 cells assessed as cell viability at 20 uM measured after 24 hrs by MTT assay relative to control
Type: cell-based
Conditions: LPS-induced BV-2 cells, read-out: Activity
Report as a plain number; the unit % is understood.

                         chemical_string        measured_attribute  observed_value
0      O=C(CCN1CCOCC1)c1ccc(C(F)(F)F)cc1  viability at 24 h, 20 µM            96.1
1  O=C(CCN1CCOCC1)c1ccc([N+](=O)[O-])cc1  viability at 24 h, 20 µM            98.3
2             O=C(CCN1CCOCC1)c1ccc(O)cc1  viability at 24 h, 20 µM              99

Turning now to a further compound:
# viability at 24 h, 20 µM lookup, item COc1ccc(C(=O)CCN2CCOCC2)cc1
100

###

Test: Inhibition of LPS-induced nitric oxide production in […] BV-2 cells at 20 uM measured after 24 hrs by Griess reagent assay relative to control
Assay type: functional, Mus musculus
Conditions: BV-2, 24 h
Label rule, in plain words: inhibition at 20 µM of 40% and up is Criterion met, under 40% is Criterion not met.

Study these solved cases before continuing.
>>> df
                     chemical_string   class_assignment
0         O=C(CCN1CCOCC1)c1ccc(O)cc1  Criterion not met
1    O=C(CCN1CCOCC1)c1ccccc1C(F)(F)F      Criterion met
2        O=C(CN1CCOCC1)C(=O)c1ccccc1  Criterion not met
3  O=C(CCN1CCOCC1)c1ccc(C(F)(F)F)cc1      Criterion met
4        O=C(CC(=O)N1CCOCC1)c1ccccc1  Criterion not met
5            O=C(CCN1CCOCC1)c1ccccc1  Criterion not met

Turning now to a further compound:
Form field: inhibition at 20 µM at least 40%? Entry: Nc1ccc(C(=O)CCN2CCOCC2)cc1
Criterion not met
